- Test system: Glutamate [NMDA] receptor
- Assay name: Tested for the affinity to the glycine site -NMDA receptor using [3H]Gly as radioligand.
- Assay type: protein-complex assay
Entries annotated with measured pIC50
# pIC50 is unitless: minus log10 of the molar concentration; print number only

# Compound, pIC50
records = [
    ("O=C(O)c1cc(O)c2c(Cl)cc(Cl)cc2n1", 7.17),
    ("CS(=O)(=O)NC(=O)c1nc2cc(Cl)c(Cl)cc2nc1O", 6.44),
    ("O=c1[nH]c2cc([N+](=O)[O-])c([N+](=O)[O-])cc2[nH]c1=O [DNQX]", 6.08),
    ("O=C(NS(=O)(=O)c1ccccc1)c1nc2cc(Cl)c(Cl)cc2[nH]c1=O", 6.92),
]

Give the observed pIC50 of `O=C(O)c1nc2cc(Cl)c(Cl)cc2nc1O` for Glutamate [NMDA] receptor. 6.34

====

Glutamate receptor ionotropic AMPA (Homo sapiens, UniProt P42261+P42262+P42263+P48058) measurements of pIC50, listed per entry.
# pIC50 is unitless: minus log10 of the molar concentration; print number only

Below are worked cases with known answers.
# Smiles representation, Test system, Value observed
measured = [
    ("CS(=O)(=O)NC(=O)c1nc2cc(Cl)c(Cl)cc2nc1O", "Glutamate receptor ionotropic AMPA (Homo sapiens, UniProt P42261+P42262+P42263+P48058)", 4.85),
    ("O=C(O)c1nc2cc(Cl)c(Cl)cc2nc1O", "Glutamate receptor ionotropic AMPA (Homo sapiens, UniProt P42261+P42262+P42263+P48058)", 5.17),
    ("O=c1[nH]c2cc([N+](=O)[O-])c([N+](=O)[O-])cc2[nH]c1=O", "Glutamate receptor ionotropic AMPA (Homo sapiens, UniProt P42261+P42262+P42263+P48058)", 6.70),
]

We next turn to a different compound, shown below.
Give the observed pIC50 of `O=C(NS(=O)(=O)c1ccccc1)c1nc2cc(Cl)c(Cl)cc2[nH]c1=O` for Glutamate receptor ionotropic AMPA (Homo sapiens, UniProt P42261+P42262+P42263+P48058). 5.37

====

- Assay name: Partition coefficient was measured using a shake flask method with octanol/buffer at physiological pH
- Assay type: physicochemical
Test readout: logD
// response body must contain only the number

Below are worked cases with known answers.
# Molecule, Test readout, Value observed
rows = [
    ("O=C(O)c1nc2cc(Cl)c(Cl)cc2nc1O", "logD", -1),
    ("O=C(NS(=O)(=O)c1ccccc1)c1nc2cc(Cl)c(Cl)cc2[nH]c1=O", "logD", 0.15),
    ("O=C(O)c1cc(O)c2c(Cl)cc(Cl)cc2n1", "logD", -0.56),
]

Respond only with logD recorded for O=c1[nH]c2cc([N+](=O)[O-])c([N+](=O)[O-])cc2[nH]c1=O [DNQX] 0.09

Respond only with logD recorded for `CS(=O)(=O)NC(=O)c1nc2cc(Cl)c(Cl)cc2nc1O` -1.1
